Quick record of ΔTm values for Serine/threonine-protein kinase 26 (Homo sapiens) (UniProt Q9P289).
One number for each entry, in °C.

Completed entries (count: 5):
molecule	ΔTm / °C
N#CCCc1ccc2c(c1)-c1[nH]c3ccc([N+](=O)[O-])cc3c1CC(=O)N2	2.8
O=C1Nc2ccc(S(=O)(=O)O)cc2/C1=C1/Nc2ccccc2/C1=N\O	0.5
NCCNc1ncc(C(N)=O)c(Nc2cccc(C(F)(F)F)c2)n1	0.1
CC(C)c1cc(/C=C(\C#N)C(=O)NCCCc2ccccc2)cc(C(C)C)c1O	2.5
O=C1NC(=O)c2c1c1c3ccccc3n3c1c1c2c2ccccc2n1C1CCC3O1	-0.6

Batch: ΔTm for all items listed.
1. CCOc1ccc(/C=C2/SC(=O)N(CCN)C2=O)cc1
2. Cn1cc(/C=C2/C(=O)Nc3ccc(S(N)(=O)=O)cc32)c2ccccc21
3. Brc1c(Br)c(Br)c2[nH]nnc2c1Br
4. CCN1/C(=C/C(C)=O)Sc2ccc(OC)cc21
5. OC[C@H]1O[C@@H](n2cnc3cc(Cl)c(Cl)cc32)[C@H](O)[C@@H]1O
6. O=c1c(O)c(-c2ccc(O)c(O)c2)oc2cc(O)cc(O)c12
7. C/C(O)=C(\C#N)C(=O)Nc1cc(Br)ccc1Br
8. CN(C)CC1CCn2c(c(C3=C(c4c[nH]c5ccccc45)C(=O)NC3=O)c3ccccc32)C1 (stereo not drawn)

Result:
1: -0.1; 2: -0.2; 3: 1.3; 4: 0.7; 5: -0.3; 6: 8.1; 7: -0.1; 8: 0.4

Batch: ΔTm for all items listed.
1. N=C(N)NCCNS(=O)(=O)c1cccc2cnccc12
2. O=C1C=C2C(=Nc3c2c2c(c4c3=NC3=C4CCC=C3)C=NC=2)CC1
3. COc1cccc(-c2cc(=O)c3ccccc3o2)c1N
4. CCOC(=O)c1cnc2oc3ccc(O)cc3c2c1-c1ccccc1
5. COC1=C2C[C@@H](C)C[C@H](OC)[C@H](O)[C@@H](C)/C=C(\C)[C@H](OC(N)=O)[C@@H](OC)/C=C\C=C(/C)C(=O)NC(=CC1=O)C2=O

Result:
1: 0.1; 2: 8.5; 3: -0.3; 4: 0; 5: -0.3

Batch: ΔTm for all items listed.
1. O=C1Nc2cc(Br)ccc2/C1=C1/Nc2ccccc2/C1=N\O
2. CN(C)S(=O)(=O)c1ccc2c(c1)/C(=C/c1cc3c([nH]1)CCCC3)C(=O)N2
3. O=C1NC(=O)C(c2c[nH]c3ccccc23)=C1c1c[nH]c2ccccc12

Result:
4.1
1
3.7

Batch: ΔTm for all items listed.
1. Cn1cc(C2=C(c3cn(CCCSC(=N)N)c4ccccc34)C(=O)NC2=O)c2ccccc21
2. Cn1cc(C2=C(c3cn(CCCN)c4ccccc34)C(=O)NC2=O)c2ccccc21
3. O=S(=O)(c1cccc2c(Cl)cccc12)N1CCCNCC1
4. N#C/C(=C1/Nc2ccccc2S1)c1ccnc(NCCc2cccnc2)n1
5. N#CC(C#N)=Cc1ccc(O)c(O)c1

Result:
1. -0.6
2. -0.2
3. -0.1
4. 0.9
5. 0.1

Batch: ΔTm for all items listed.
1. Cc1ccc(NC(=O)c2ccc(CN3CCN(C)CC3)cc2)cc1Nc1nccc(-c2cccnc2)n1
2. CN[C@@H]1CC2O[C@@](C)([C@@H]1OC)n1c3ccccc3c3c4c(c5c6ccccc6n2c5c31)C(=O)NC4

Result:
1: -0.3; 2: 8.8

Batch: ΔTm for all items listed.
1. O=C1Nc2ccccc2/C1=C/c1cnc[nH]1
2. CC(C)(C)c1nc2c3ccc(F)cc3c3c(=O)[nH]ccc3c2[nH]1
3. O=C(O)Cc1ccc(O)c([N+](=O)[O-])c1
4. C[S+]([O-])c1ccc(-c2nc(-c3ccc(F)cc3)c(-c3ccncc3)[nH]2)cc1 (stereo not drawn)
5. COc1cc(OC)c(/C=C2\C(=O)Nc3ccccc32)c(OC)c1

Result:
4.5
3.6
1.1
-0.4
0

Recorded values, source ChEMBL document CHEMBL1145498.
